Source: patent US11999727B2

Target: PRMT5 (Homo sapiens)
Construct: purchased Viva (custom protein)
Sequence (O14744 whole entry): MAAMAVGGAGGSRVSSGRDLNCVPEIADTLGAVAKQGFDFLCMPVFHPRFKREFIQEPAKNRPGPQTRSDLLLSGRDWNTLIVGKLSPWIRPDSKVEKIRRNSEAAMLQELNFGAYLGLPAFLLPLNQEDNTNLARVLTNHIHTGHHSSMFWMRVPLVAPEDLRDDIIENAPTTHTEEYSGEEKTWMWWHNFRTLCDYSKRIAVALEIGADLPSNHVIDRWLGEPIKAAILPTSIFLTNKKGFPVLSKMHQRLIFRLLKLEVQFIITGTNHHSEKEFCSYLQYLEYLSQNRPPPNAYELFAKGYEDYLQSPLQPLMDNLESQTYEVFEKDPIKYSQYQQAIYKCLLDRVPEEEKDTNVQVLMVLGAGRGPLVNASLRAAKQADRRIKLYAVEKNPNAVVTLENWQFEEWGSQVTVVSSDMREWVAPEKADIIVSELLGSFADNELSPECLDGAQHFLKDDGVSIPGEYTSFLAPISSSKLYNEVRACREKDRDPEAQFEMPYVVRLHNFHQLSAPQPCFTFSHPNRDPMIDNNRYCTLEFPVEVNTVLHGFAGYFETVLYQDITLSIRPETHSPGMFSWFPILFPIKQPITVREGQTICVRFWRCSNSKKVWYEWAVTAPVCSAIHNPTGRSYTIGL
Sequence (Q9BQA1 whole entry partner): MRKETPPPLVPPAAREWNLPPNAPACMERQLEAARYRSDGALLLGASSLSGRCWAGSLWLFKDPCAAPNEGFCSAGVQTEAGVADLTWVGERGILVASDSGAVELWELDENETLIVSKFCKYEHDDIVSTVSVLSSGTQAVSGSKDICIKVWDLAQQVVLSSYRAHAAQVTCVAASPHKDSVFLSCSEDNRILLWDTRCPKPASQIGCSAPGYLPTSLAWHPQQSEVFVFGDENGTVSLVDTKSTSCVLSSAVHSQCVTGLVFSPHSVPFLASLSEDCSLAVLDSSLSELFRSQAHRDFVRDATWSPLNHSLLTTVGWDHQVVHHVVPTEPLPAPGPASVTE
Experiment: PRMT5 biochemical IC50 assay with MTA as cofactor
Details: PRMT5, MTA as cofactor; read-out: MTA IC50
pIC50: −log10 of the molar value.
Quantity measured: pIC50

Answered cases to consult:
Compound	Result
COCCc1nc2cc([C@@H]3CC[C@@H](C)CN3C(=O)C(=O)Nc3cnc(N)c(C4CC4)c3)ccc2s1 (single isomer, unassigned) [Compound 1332]	> 7.30
CCc1cc(NC(=O)C(=O)N2C[C@@H](C)CC[C@@H]2c2ccc(C)nc2)cnc1N (single isomer, unassigned) [Compound 784]	> 7.30
Cc1cc(NC(=O)C(=O)N2C[C@@H](C)CC[C@@H]2c2ccc3sc(CCN4CCOCC4)nc3c2)cnc1N [Compound 1387]	> 7.30
Cc1cc([C@@H]2CC[C@@H](C)CN2C(=O)C(=O)Nc2cnc(N)c(C)c2)ccc1O (single isomer, unassigned) [Compound 572]	6.30 to 7.30
Cc1cc(NC(=O)C(=O)N2C[C@@H](C)[C@H](C)C[C@H]2c2ccccc2)cnc1N (single isomer, unassigned) [Compound 313]	> 7.30
CCc1cc(NC(=O)C(=O)N2C[C@@H](C)CC[C@@H]2c2ccc3c(c2)C(=O)N(C2CCN(C)CC2)C3)cnc1N (racemic) [Compound 1272]	> 7.30
COc1ncc(NC(=O)C(=O)N2C[C@@H](C)CC[C@@H]2c2ccc(-c3nccs3)cc2)cc1C(N)=O (single isomer, unassigned) [Compound 811]	> 7.30
Cc1cc(NC(=O)C(=O)N2C[C@H](C)CC[C@H]2c2ccc3c(c2)C(=O)NC3)cnc1N (racemic) [Compound 582]	6.30 to 7.30

Item: CCc1cc(NC(=O)C(=O)N2C[C@@H](C)CC[C@@H]2c2ccc3sc(C4(F)CCN(C)CC4)nc3c2)cnc1N [Compound 1160] | pIC50: > 7.30

Item: CNc1cccc([C@@H]2CC[C@@H](C)CN2C(=O)C(=O)Nc2cncc(C(N)=O)c2)c1 (single isomer, unassigned) [Compound 348] | pIC50: > 7.30

Item: Cc1cc(NC(=O)C(=O)N2C[C@H](C)CC[C@H]2c2ccc(N3CCN(C)CC3)cc2)cnc1N (single isomer, unassigned) [Compound 1193] | pIC50: < 6.30

###

Test system: HAP1 MTAP-deleted cell line
Experiment: SDMA in-cell western assay, HAP1 MTAP-deleted
Type: cell-based
Conditions: Homo sapiens, HAP1, SDMA in-cell western, HAP1 MTAP-deleted; read-out: HAP 1 MTAP deleted IC50
pIC50: −log10 of the molar value.
Catalogue of pIC50 values

Answered cases to consult:
Compound	Test system	pIC50
Cc1cc(NC(=O)C(=O)N2C[C@H](C)CC[C@H]2c2cc(Cl)cc(Cl)c2)cnc1N (single isomer, unassigned) [Compound 681]	HAP1 MTAP-deleted cell line	> 7.00
Cc1cc(NC(=O)C(=O)N2CCCC[C@@H]2C2CCCCC2)cnc1N (single isomer, unassigned) [Compound 42]	HAP1 MTAP-deleted cell line	> 7.00
CCc1cc(NC(=O)C(=O)N2C[C@@H](C)CC[C@@H]2c2ccc3ccc(C4CCN(C)CC4)nc3c2)cnc1N [Compound 1365]	HAP1 MTAP-deleted cell line	> 7.00
COc1ncc(NC(=O)C(=O)N2C[C@@H](C)CC[C@@H]2c2ccc3nn(C)cc3c2)cc1C(N)=O (single isomer, unassigned) [Compound 1059]	HAP1 MTAP-deleted cell line	> 7.00
CCc1cc(NC(=O)C(=O)N2C[C@@H](C)CC[C@@H]2c2ccc3sc(CCCN(C)C)nc3c2)cnc1N [Compound 1262]	HAP1 MTAP-deleted cell line	> 7.00

The recorded pIC50 with HAP1 MTAP-deleted cell line for COc1ncc(NC(=O)C(=O)N2C[C@H](C)C(F)(F)C[C@H]2c2ccc(C)nc2)cc1C(N)=O (single isomer, unassigned) [Compound 936] was < 6.00
